Known C3 (% of baseline) of a selection of substances
# CONDITION_PARAMETERS: cynomolgus monkey, in vivo, sc, 40 mg/kg

A selection of reference data follows.
SUBSTANCE	REPORTED_VALUE
ISIS 584163: antisense compound targeted to human AR (GAACATTATTAGGCTA; 3-10-3 (S)-cEt gapmer, further chemistry not given here)	102 % of baseline
TTGATTTAATGGTTGC [ISIS 560131] (MOE and (S)-cEt gapmer chemistry, further chemistry not given here)	100 % of baseline
ISIS 584269: antisense compound targeted to human AR (CCTTATGGATGCTGCT; 3-10-3 (S)-cEt gapmer, further chemistry not given here)	102 % of baseline
ISIS 584468: antisense compound targeted to human AR (CATTGTACTATGCCAG; 3-10-3 (S)-cEt gapmer, further chemistry not given here)	111 % of baseline
ISIS 584149: antisense compound targeted to human AR (GTCAATATCAAAGCAC; 3-10-3 (S)-cEt gapmer, further chemistry not given here)	110 % of baseline

Now consider the entry below.
Consider TGATTTAATGGTTGCA [ISIS 569236] (cEt/MOE gapmer chemistry, further chemistry not given here) . Its measured C3 (% of baseline) is 103 % of baseline

###

# Tested on: AR mRNA
# ASSAY_TEXT: Dose-dependent antisense inhibition of human AR in HuVEC cells (electroporation, qRT-PCR RTS3559, IC50)
# Format: cell-based
# CONDITION_PARAMETERS: Table 34; 750.0 nM, HuVEC, electroporation, approximately 16 hours
Oligonucleotides are written 5' to 3', each unit as a sugar letter and its base; * is a phosphorothioate linkage, no mark a phosphodiester; rarer units and linkages stand in square brackets, end groups in braces. Plain capitals give the bases only. k = constrained ethyl (cEt); [5mC] = 5-methylcytosine; d = 2'-deoxy (DNA)
METRIC_NAME: percent inhibition of AR, 750.0 nM (%)
A number alone suffices; assume %.

Sample records with percent inhibition of AR, 750.0 nM:
>>> print(df.to_string())
                                  substance  reported_value
0  583932 (kT*k[5mC]*kT*d[5mC]*d[5mC]*dA*dG*d[5mC]*dT*dT*dG*dA*dT*kG*k[5mC]*kG; antisense) [compound 583932]              64
1  584139 (kT*k[5mC]*kT*dA*dA*dA*d[5mC]*dA*dT*dG*dA*d[5mC]*dG*kG*kT*kT; antisense) [compound 584139]              56
2  549372 (kA*kA*kG*dT*dT*dG*dT*dA*dG*dT*dA*dG*dT*k[5mC]*kG*k[5mC]) [compound 549372]              64
3  583999 (kA*k[5mC]*k[5mC]*dA*dT*dG*d[5mC]*d[5mC]*dG*d[5mC]*d[5mC]*dA*dG*kG*kG*kT; antisense) [compound 583999]              30
4  583922 (kA*kG*kT*dT*dG*dT*dA*dG*dT*dA*dG*dT*d[5mC]*kG*k[5mC]*kG; antisense) [compound 583922]              76
5  583933 (k[5mC]*kA*kG*d[5mC]*dG*dG*dG*dT*dT*d[5mC]*dT*d[5mC]*d[5mC]*kA*kG*k[5mC]; antisense) [compound 583933]              56
6  549458 (kG*kT*kT*dG*dA*dT*dT*dT*dA*dA*dT*dG*dG*kT*kT*kG) [compound 549458]              84
7  584044 (k[5mC]*k[5mC]*k[5mC]*dT*dT*d[5mC]*dA*dG*d[5mC]*dG*dG*d[5mC]*dT*k[5mC]*kT*kT; antisense) [compound 584044]              51

So the reported percent inhibition of AR, 750.0 nM for 583998 (k[5mC]*kA*kT*dG*d[5mC]*d[5mC]*dG*d[5mC]*d[5mC]*dA*dG*dG*dG*kT*kA*k[5mC]; antisense) [compound 583998] , on AR mRNA, turned out to be 38

The value of percent inhibition of AR, 750.0 nM recorded for 584006 (kA*k[5mC]*kA*d[5mC]*dA*dA*dG*dT*dG*dG*dG*dA*d[5mC]*kT*kG*kG; antisense) [compound 584006] when tested on AR mRNA reads 59

Tested system AR mRNA; percent inhibition of AR, 750.0 nM recorded for 583990 (kA*k[5mC]*kA*d[5mC]*dA*dT*d[5mC]*dA*dG*dG*dT*dG*d[5mC]*kG*kG*kT; antisense) [compound 583990] was 33

Lab entry: AR mRNA assay, substance 583917 (kT*k[5mC]*kG*d[5mC]*dG*dA*d[5mC]*dT*d[5mC]*dT*dG*dG*dT*kA*k[5mC]*kG; antisense) [compound 583917] , percent inhibition of AR, 750.0 nM = 50

Param item: 584002 (k[5mC]*kT*kG*d[5mC]*dT*d[5mC]*dA*d[5mC]*d[5mC]*dA*dT*dG*d[5mC]*k[5mC]*kG*k[5mC]; antisense) [compound 584002] ; param system: AR mRNA; output percent inhibition of AR, 750.0 nM: 70

Simply: 584128 (kA*kT*kT*d[5mC]*dT*dT*dG*dA*d[5mC]*dT*dG*dT*d[5mC]*kT*kG*kA; antisense) [compound 584128] , AR mRNA, percent inhibition of AR, 750.0 nM = 41
